# Measured On: E3 zinc finger protein (three C-terminal fingers of E2C) (artificial)
# Sequence (chain, as listed by the source): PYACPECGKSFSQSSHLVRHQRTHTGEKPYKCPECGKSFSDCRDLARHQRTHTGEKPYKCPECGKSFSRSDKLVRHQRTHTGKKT
# Test Details: EMSA
# Assay Context: tags: no cleavage domain
Test Readout: Kd (nM)
Number in nM, nothing else.

[ask] Using the record for E3 binding site (dsDNA) DNA 1: GGGGCCGGA DNA 2: TCCGGCCCC , report its Kd.
[reply] 35
